Where do these numbers come from? They come from PubChem BioAssay.

Assay: binders of probe aFGF2 on microarray, primary screen, stem cell growth factor project, biochemical, small-molecule microarray, fluorescence 635/667 (AID 1067);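 also: measures binding of biotinylated aFGF2 protein to printed compounds on slides; z-score merges feature fluorescence and signal-to-noise across triplicate slides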
Measurement context: higher = more signal
Label 1 (yes) when composite z-score is at or above 0.04; otherwise label 0 (no).

Illustrative cases are given below, each with its answer.
Cc1c(NC(=O)/C(C#N)=C/C=C/c2ccc(N(C)C)cc2)c(=O)n(-c2ccccc2)n1C | 1 (yes)
COc1ccc([Si](C)(C)[C@@H]2[C@@H](CCn3cc([C@H](O)c4ccccc4)nn3)O[C@]3(C(=O)N(Cc4ccc(N5CCOC5=O)cc4)c4ccccc43)[C@H]2C)cc1 | 0 (no)
CCOc1cc(C(O)C2C=CC3C(=O)N(C4CCCCC4)C(=O)C3N2Nc2ccc(OC)cc2)ccc1O (configuration not stated) | 1 (yes)
COC(=O)[C@@]1(Cc2ccc(OC)cc2)[C@H]2c3cc(C(=O)N4CCCC4)n(CCc4cc5ccccc5[nH]4)c3C[C@H]2CN1C(=O)c1ccccc1 | 1 (yes)
CC[C@@H]1[C@H]2C3C(=O)N(CC)C(=O)C3CC(=O)[C@H]2[C@H](c2ccc(C)cc2)N1S(=O)(=O)c1ccc(C)cc1 (some centres not stated) | 0 (no)

Please tell me: is the compound O=C1NCC(=O)N2[C@@H]1C[C@@H](C(=O)O)[C@H]2c1ccc(O)cc1 at or over 0.04 in terms of composite z-score?
0 (no)

Please tell me: is the compound C=CC[C@]12N=C(c3ccc(OCCCO)cc3)O[C@H]1c1ccccc1N(C)C2=O at or over 0.04 in terms of composite z-score?
1 (yes)

Please tell me: is the compound O=C1O[C@@H](c2ccccc2)[C@@H](c2ccccc2)N2[C@@H](c3ccc(O)cc3)[C@]3(C(=O)Nc4ccccc43)[C@@H](C(=O)Nc3nc4ccccc4s3)[C@H]12 at or over 0.04 in terms of composite z-score?
0 (no)

Please tell me: is the compound CC(C)C(CO)N1C(=O)[C@]2(C)C3C(=O)OCCC/C=C\[C@H]3OC23C=CCN(c2ccc(Cl)cc2)C(=O)[C@@H]13 (some centres not stated) at or over 0.04 in terms of composite z-score?
0 (no)

Please tell me: is the compound CC(C)(C)OC(=O)CC[C@]1(C(=O)O)N=C(c2ccc(OCCCO)cc2)O[C@H]1c1ccccc1CN=[N+]=[N-] at or over 0.04 in terms of composite z-score?
1 (yes)

Please tell me: is the compound COC(=O)C(CC#Cc1ccc2c(c1)[C@]1(C(=O)N2)[C@H](C(=O)O)[C@H]2C(=O)O[C@H](c3ccccc3)[C@H](c3ccccc3)N2[C@@H]1c1ccccc1OCCO)C(=O)OC at or over 0.04 in terms of composite z-score?
1 (yes)

----------
Assay: inhibitors of hydroxyurea-induced Chk1 phosphorylation, primary screen, imaging, HeLa, phospho-Chk1 antibody, percent positive cells (AID 1186)
Measurement context: hydroxyurea-induced phospho-Chk1 immunofluorescence imaging, higher = more signal
Each entry below carries its recorded z-score.
# answer = number (no unit)

Example cases with answers are listed next.
[N-]=[N+]=Nc1ccccc1[C@H]1OC(c2ccc(OCCCO)cc2)=N[C@@]1(CCS(=O)(=O)c1ccccc1)C(=O)N1CCCCC1 | -0.483
C=C(C(=O)CC[C@H](OC(=O)c1cccnc1)c1ccc(CO)o1)C(C)C | 0.286
COc1c(C)cc(-c2cc3c(c(Cc4ccccc4)n2)[Si](C(C)C)(C(C)C)OC3)cc1C | -0.142

Given the entry Cc1c(NC(=O)/C(C#N)=C/C=C/c2ccccc2[N+](=O)[O-])c(=O)n(-c2ccccc2)n1C , report its measured z-score.
0.432

Given the entry C=CCN1C(=O)[C@]2(CC=C)N=C(c3ccc(OCCCO)cc3)O[C@@H]2c2ccccc21 , report its measured z-score.
-0.0194

Given the entry CCOC(=O)C1=CC[C@@H](c2ccc([N+](=O)[O-])cc2)N(S(=O)(=O)c2ccc(C)cc2)[C@H]1c1ccccc1 , report its measured z-score.
-0.137

Given the entry CO[C@H]1O[C@H](CO)[C@@H](OC(=O)Nc2ccc(Oc3ccccc3)cc2)[C@H](OC(=O)Nc2ccccc2-c2ccccc2)[C@@H]1OC(=O)Nc1ccccc1-c1ccccc1 , report its measured z-score.
-0.141

----------
Assay: basal MM1S mitochondrial membrane potential changes, profiling panel, cell-based, JC-1 fluorescence, 24 h, 100 nL compound (AID 1170); also: test concentration not given here
Measurement context: higher = more signal
Label T when z-score is at or above 0.08; otherwise label F.

Illustrative cases are given below, each with its answer.
Cc1ccc(S[C@]2(C(=O)NCC(F)(F)F)CC(=O)N(Cc3ccccc3)[C@@H]2c2ccc(CO)cc2)cc1 | F
O=C1c2ccccc2[C@](Cc2ccccc2I)(C(=O)NCCN2CCOCC2)[C@H](c2ccc(CO)cc2)N1Cc1ccccc1 | F
CC(C)CN1C(=O)[C@@]2(c3ccc([N+](=O)[O-])cc3)CC(=O)N(CC34CC5CC(CC(C5)C3)C4)[C@@H]2c2ccc(CO)cc21 | F

Please tell me: is the compound COc1cc2c(cc1OC)CN(C(=O)[C@@H]1[C@H]3C(=O)O[C@H](c4ccccc4)[C@H](c4ccccc4)N3[C@H](c3ccccc3OCCO)[C@@]13C(=O)Nc1ccc(C#CC4(O)CCCCCC4)cc13)CC2 at or over 0.08 in terms of z-score?
F

Please tell me: is the compound COCCOC(=O)N1C(=O)[C@@]2(c3cc(C#CC4(O)CCCCCC4)ccc31)[C@H](c1ccccc1OCCO)N1[C@H](c3ccccc3)[C@H](c3ccccc3)OC(=O)[C@H]1[C@@H]2C(N)=O at or over 0.08 in terms of z-score?
F

Please tell me: is the compound O=C1O[C@@H](c2ccccc2)[C@@H](c2ccccc2)N2[C@@H](c3ccc(O)cc3)[C@]3(C(=O)Nc4ccccc43)[C@@H](C(=O)Nc3nc4ccccc4s3)[C@H]12 at or over 0.08 in terms of z-score?
F

Please tell me: is the compound CCOC(=O)C[C@H]1[C@H](OC(=O)c2ccc(-c3ccccc3)cc2)[C@@H](NC(=O)c2ccc3ccccc3c2)c2cc(OCCCO)ccc2N1C(=O)c1ccc2ccccc2n1 at or over 0.08 in terms of z-score?
T

Please tell me: is the compound CC1CC/C=C\[C@H]2OC34C=CCN(CCN5CCOCC5)C(=O)[C@H]3N(CCO)C(=O)[C@@H]4C2C(=O)O1 (stereo not given in full) at or over 0.08 in terms of z-score?
T

Please tell me: is the compound O=C1NC(=O)C2C1C=CC(C(O)c1c(F)cccc1Cl)N2Nc1ccccn1 (stereo not given) at or over 0.08 in terms of z-score?
T

----------
Assay: inhibitors of hydroxyurea-induced Chk1 phosphorylation, primary screen, imaging, HeLa, phospho-Chk1 antibody, percent positive cells (AID 1186)
Measurement context: hydroxyurea-induced phospho-Chk1 immunofluorescence imaging, higher = more signal
Each entry below carries its recorded z-score.
# answer = number (no unit)

Given the entry C=CCC(OC(C)=O)[C@@H]1[C@@H](N(Cc2cc3ccccc3o2)C(=O)c2ccc(C)cc2)c2cc(OCCCO)ccc2N1C(=O)Cc1ccc2ccccc2c1 (stereo partly specified) , report its measured z-score.
0.0151

----------
Assay: small-molecule binders of probe aInhba, primary screen, biochemical, small-molecule microarray, 635/667 nm fluorescence (AID 1148);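 also: score merges 667nm spot fluorescence with signal-to-noise for antibody binding to printed compounds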
Measurement context: higher = more signal
Label Yes when composite z-score is at or above 0.01; otherwise label No.

Illustrative cases are given below, each with its answer.
C[C@@H]1ON(c2ccc(C(=O)OC(C)(C)C)cc2)[C@H](c2ccc(Br)cc2)[C@H]1C(=O)N1C(=O)OC[C@H]1Cc1ccccc1 | Yes
CCCc1cccc(=O)o1 | No
COCCOC(=O)N1C(=O)[C@@]2(c3cc(C#CC4(O)CCCCCC4)ccc31)[C@H](C(N)=O)[C@H]1C(=O)O[C@H](c3ccccc3)[C@H](c3ccccc3)N1[C@@H]2c1ccccc1OCCO | No

Please tell me: is the compound O=C(NC1CC1)[C@@H]1c2ccccc2C(=O)N(Cc2ccccc2)[C@H]1c1ccc(CO)cc1 at or over 0.01 in terms of composite z-score?
Yes

Please tell me: is the compound C=CCN1C(=O)[C@@]2(CCC(=O)OC(C)(C)C)N=C(c3ccc(OCCCO)cc3)O[C@H]2c2ccccc21 at or over 0.01 in terms of composite z-score?
Yes

Please tell me: is the compound CCOC(=O)C[C@H]1[C@H](OC(=O)c2ccccc2-c2ccccc2)[C@@H](NC(=O)CC(C)C)c2cc(OCCCO)ccc2N1C(=O)c1ccc2ccccc2n1 at or over 0.01 in terms of composite z-score?
No

Please tell me: is the compound [N-]=[N+]=Nc1ccccc1[C@H]1OC(c2ccc(OCCCO)cc2)=N[C@@]1(CCS(=O)(=O)c1ccccc1)C(=O)N1CCCCC1 at or over 0.01 in terms of composite z-score?
Yes

Please tell me: is the compound Cc1ccc(C(C)CC(O)C2C=CC3C(=O)N(c4ccccc4)C(=O)C3N2Nc2ccc(C(C)C)cc2)o1 (stereo unspecified) at or over 0.01 in terms of composite z-score?
Yes

Please tell me: is the compound CN(C)CCCNC(=O)[C@@]1(C)c2ccccc2C(=O)N(Cc2cc(C(F)(F)F)cc(C(F)(F)F)c2)[C@H]1c1ccc(CO)cc1 at or over 0.01 in terms of composite z-score?
Yes

Please tell me: is the compound CN1C(=O)C2C(C1=O)C1C=C(c3ccc(CO)cc3)C2C(c2cccs2)N1Cc1cccc(OC(F)(F)F)c1 (stereo unspecified) at or over 0.01 in terms of composite z-score?
Yes

Please tell me: is the compound COC(=O)[C@@]1(Cc2ccccc2)[C@H]2c3cc(C(=O)N4CCCC4)n(Cc4cc(F)cc5c4OCOC5)c3C[C@H]2CN1C(=O)c1ccccc1 at or over 0.01 in terms of composite z-score?
Yes
